target: δ-opioid receptor (Mus musculus); construct: from tissue; host or cells: vas deferens of male ddy mice; test: Change in δ-antagonist activity against DPDPE with time in mouse vas deferens (MVD); details: 30 min; 173 and NTI at 20 nM, 174 and 5'-NTII at 100 nM
Property measured: Ratio of IC50 Values

Molecule	Property measured	Quantitative result
Oc1ccc2c3c1O[C@H]1c4[nH]c5ccccc5c4C[C@@]4(O)[C@@H](C2)N(CC2CC2)CC[C@]314 [NTI, reference compound]	Ratio of IC50 Values	95.6
Oc1ccc2c3c1O[C@H]1c4[nH]c5cc(N=C=S)ccc5c4C[C@@]4(O)[C@@H](C2)N(CC2CC2)CC[C@]314	Ratio of IC50 Values	47.6
Oc1ccc2c3c1O[C@H]1c4[nH]c5c(N=C=S)cccc5c4C[C@@]4(O)[C@@H](C2)N(CC2CC2)CC[C@]314	Ratio of IC50 Values	253
Oc1ccc2c3c1O[C@H]1c4[nH]c5ccc(N=C=S)cc5c4C[C@@]4(O)[C@@H](C2)N(CC2CC2)CC[C@]314 [5'-NTII, reference compound]	Ratio of IC50 Values	7.47

* * *

# log10(Kb) listing for each entry below
molecular target: κ-opioid receptor (Cavia porcellus); construct: from tissue; host or cells: ileum longitudinal muscle of male Hartley guinea pigs; assay: κ-opioid antagonist activity against U-50488H in guinea pig ileum (GPI); details: against U-50488H; test compound 100 nM, 20 min; read-out: Ke
Property measured: log10(Kb) (log10 of the value in nM)

Compound	log10(Kb)
O=C(NCC1CC1)c1ccc2[nH]c3c(c2c1)C[C@@]1(O)[C@H]2Cc4ccc(O)c5c4[C@@]1(CCN2CC1CC1)[C@H]3O5 [Compound 7]	0.66
CN(C)Cc1ccc2[nH]c3c(c2c1)C[C@@]1(O)[C@H]2Cc4ccc(O)c5c4[C@@]1(CCN2CC1CC1)[C@H]3O5 [Compound 10]	0.99
O=C(NCC1CC1)c1ccc2c3c([nH]c2c1)[C@@H]1Oc2c(O)ccc4c2[C@@]12CCN(CC1CC1)[C@H](C4)[C@]2(O)C3 [Compound 47]	1.68
O=S(=O)(NCC1CC1)c1ccc2c3c([nH]c2c1)[C@@H]1Oc2c(O)ccc4c2[C@@]12CCN(CC1CC1)[C@H](C4)[C@]2(O)C3 [Compound 45]	1.65
CN(C)CCc1ccc2[nH]c3c(c2c1)C[C@@]1(O)[C@H]2Cc4ccc(O)c5c4[C@@]1(CCN2CC1CC1)[C@H]3O5 [Compound 9]	0.61

* * *

Biological target: δ-opioid receptor (Mus musculus, UniProt P32300)
Construct: from tissue; host or cells: vas deferens of male ddy mice
Sequence (P32300 whole entry): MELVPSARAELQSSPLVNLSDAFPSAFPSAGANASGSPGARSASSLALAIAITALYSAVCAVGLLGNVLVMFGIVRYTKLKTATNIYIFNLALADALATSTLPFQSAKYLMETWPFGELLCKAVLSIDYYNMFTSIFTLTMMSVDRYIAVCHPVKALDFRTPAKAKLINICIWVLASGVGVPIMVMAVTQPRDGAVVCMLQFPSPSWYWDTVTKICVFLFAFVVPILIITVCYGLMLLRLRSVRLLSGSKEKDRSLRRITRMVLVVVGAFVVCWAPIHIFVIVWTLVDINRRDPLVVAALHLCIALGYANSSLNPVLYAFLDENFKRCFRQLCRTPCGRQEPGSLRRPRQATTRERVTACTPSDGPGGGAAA
Assay: δ-opioid antagonist activity against DPDPE in mouse vas deferens (MVD)
Details: against DPDPE; test compound 100 nM, 20 min; read-out: Ke
Description: Using mouse vas deferens (MVD), the antagonist activity against DPDPE which is a δ-opioid agonist was checked. In this experiment, ddy male mice were used. […] The contraction of the tissue was recorded on polygraph using isometric transducer. Then 100 nM of the test compound was added. […] The pA2 value was determined by the method of Shild et al (Shild, H. O., Br. J. Pharmac. Chamotehr., 4, 277 (1949)). […]
# log10 Kb listing for each entry below
Property measured: log10 Kb (log10 of the value in nM)

Molecule	Quantitative result
CCOC(=O)Cc1ccc2c3c([nH]c2c1)[C@@H]1Oc2c(O)ccc4c2[C@@]12CCN(CC1CC1)[C@H](C4)[C@]2(O)C3 [Compound 49]	0.57
OCCc1cccc2[nH]c3c(c12)C[C@@]1(O)[C@H]2Cc4ccc(O)c5c4[C@@]1(CCN2CC1CC1)[C@H]3O5 [Compound 40]	1.44
N#Cc1ccc2c3c([nH]c2c1)[C@@H]1Oc2c(O)ccc4c2[C@@]12CCN(CC1CC1)[C@H](C4)[C@]2(O)C3 [Compound 53]	0.21
Oc1ccc2c3c1O[C@H]1c4[nH]c5c(ccc6cnccc65)c4C[C@@]4(O)[C@@H](C2)N(CC2CC2)CC[C@]314 [Compound 156]	0.59
COC(=O)c1ccc2c3c([nH]c2c1)[C@@H]1Oc2c(O)ccc4c2[C@@]12CCN(CC1CC1)[C@H](C4)[C@]2(O)C3 [Compound 77]	-0.89
OCCc1ccc2c3c([nH]c2c1)[C@@H]1Oc2c(O)ccc4c2[C@@]12CCN(CC1CC1)[C@H](C4)[C@]2(O)C3 [Compound 41]	0.68
CCOC(=O)Cc1cccc2[nH]c3c(c12)C[C@@]1(O)[C@H]2Cc4ccc(O)c5c4[C@@]1(CCN2CC1CC1)[C@H]3O5 [Compound 48]	1.31
O=[N+]([O-])c1ccc2c3c([nH]c2c1)[C@@H]1Oc2c(O)ccc4c2[C@@]12CCN(CC1CC1)[C@H](C4)[C@]2(O)C3 [Compound 79]	0.23
O=C(NCC1CC1)c1ccc2[nH]c3c(c2c1)C[C@@]1(O)[C@H]2Cc4ccc(O)c5c4[C@@]1(CCN2CC1CC1)[C@H]3O5 [Compound 7]	0.49
CCCOC(=O)c1ccc2c3c([nH]c2c1)[C@@H]1Oc2c(O)ccc4c2[C@@]12CCN(CC1CC1)[C@H](C4)[C@]2(O)C3 [Compound 393]	0.95
CS(=O)(=O)c1cccc2c3c([nH]c12)[C@@H]1Oc2c(O)ccc4c2[C@@]12CCN(CC1CC1)[C@H](C4)[C@]2(O)C3 [Compound 190]	-0.85
Oc1ccc2c3c1O[C@H]1c4[nH]c5c6c(ccc5c4C[C@@]4(O)[C@@H](C2)N(CC2CC2)CC[C@]314)CCCC6 [Compound 2]	0.68
Oc1ccc2c3c1O[C@H]1c4[nH]c5c(C(F)(F)F)cccc5c4C[C@@]4(O)[C@@H](C2)N(CC2CC2)CC[C@]314 [Compound 118]	0.29

* * *

molecular target: κ-opioid receptor (Cavia porcellus, UniProt P41144); construct: from tissue; host or cells: ileum longitudinal muscle of male Hartley guinea pigs; assay: κ-opioid antagonist activity against U-50488H in guinea pig ileum (GPI); details: U-50488H IC50 with/without 100 nM test compound, 20 min
Sequence (P41144 whole entry): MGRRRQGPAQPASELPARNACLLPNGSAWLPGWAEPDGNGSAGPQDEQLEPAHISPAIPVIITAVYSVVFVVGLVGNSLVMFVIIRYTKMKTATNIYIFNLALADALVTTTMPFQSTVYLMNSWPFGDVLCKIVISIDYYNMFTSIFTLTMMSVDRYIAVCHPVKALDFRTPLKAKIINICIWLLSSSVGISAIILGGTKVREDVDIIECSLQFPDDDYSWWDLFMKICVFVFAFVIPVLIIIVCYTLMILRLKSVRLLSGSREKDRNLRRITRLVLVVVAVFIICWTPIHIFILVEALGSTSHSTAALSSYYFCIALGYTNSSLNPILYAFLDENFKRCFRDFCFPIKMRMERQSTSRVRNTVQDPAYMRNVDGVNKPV
# Ratio of IC50 Values listing for each entry below
Property measured: Ratio of IC50 Values

Compound	Result
CN(C)Cc1ccc2[nH]c3c(c2c1)C[C@@]1(O)[C@H]2Cc4ccc(O)c5c4[C@@]1(CCN2CC1CC1)[C@H]3O5 [Compound 10]	19.4
O=S(=O)(NCC1CC1)c1ccc2c3c([nH]c2c1)[C@@H]1Oc2c(O)ccc4c2[C@@]12CCN(CC1CC1)[C@H](C4)[C@]2(O)C3 [Compound 45]	3.22
O=C(NCC1CC1)c1ccc2c3c([nH]c2c1)[C@@H]1Oc2c(O)ccc4c2[C@@]12CCN(CC1CC1)[C@H](C4)[C@]2(O)C3 [Compound 47]	3.11
CN(C)CCc1ccc2[nH]c3c(c2c1)C[C@@]1(O)[C@H]2Cc4ccc(O)c5c4[C@@]1(CCN2CC1CC1)[C@H]3O5 [Compound 9]	99.0
O=C(NCC1CC1)c1ccc2[nH]c3c(c2c1)C[C@@]1(O)[C@H]2Cc4ccc(O)c5c4[C@@]1(CCN2CC1CC1)[C@H]3O5 [Compound 7]	22.8

* * *

target: δ-opioid receptor (Mus musculus); construct: from tissue; host or cells: vas deferens of male ddy mice; experiment: δ-opioid antagonist activity against DPDPE in mouse vas deferens (MVD); conditions: DPDPE IC50 with/without 100 nM test compound, 20 min
Property measured: Ratio of IC50 Values

Mol smiles	Quantitative result
CS(=O)(=O)c1ccc2c3c([nH]c2c1)[C@@H]1Oc2c(O)ccc4c2[C@@]12CCN(CC1CC1)[C@H](C4)[C@]2(O)C3	56.0
CN(C)Cc1ccc2[nH]c3c(c2c1)C[C@@]1(O)[C@H]2Cc4ccc(O)c5c4[C@@]1(CCN2CC1CC1)[C@H]3O5	11.4
O=[N+]([O-])c1ccc2c3c([nH]c2c1)[C@@H]1Oc2c(O)ccc4c2[C@@]12CCN(CC1CC1)[C@H](C4)[C@]2(O)C3	60.6

* * *

target: δ-opioid receptor (Mus musculus, UniProt P32300); construct: from tissue; host or cells: vas deferens of male ddy mice; test: δ-opioid antagonist activity against DPDPE in mouse vas deferens (MVD); conditions: against DPDPE; test compound 100 nM, 20 min; read-out: Ke
Property measured: log10 of Kb (log10 of the value in nM)

Molecule	Quantitative result
O=[N+]([O-])c1cccc2c3c([nH]c12)[C@@H]1Oc2c(O)ccc4c2[C@@]12CCN(CC1CC1)[C@H](C4)[C@]2(O)C3 [Compound 136]	-0.28
C=CCN1CC[C@]23c4c5ccc(O)c4O[C@H]2c2[nH]c4cc(C(=O)OC)ccc4c2C[C@@]3(O)[C@H]1C5 [Compound 115]	0.13
CSc1cccc2c3c([nH]c12)[C@@H]1Oc2c(O)ccc4c2[C@@]12CCN(CC1CC1)[C@H](C4)[C@]2(O)C3 [Compound 121]	0.49
O=C(NCC1CC1)c1cccc2[nH]c3c(c12)C[C@@]1(O)[C@H]2Cc4ccc(O)c5c4[C@@]1(CCN2CC1CC1)[C@H]3O5 [Compound 46]	2.41
Oc1ccc2c3c1O[C@H]1c4[nH]c5ccccc5c4C[C@@]4(O)[C@@H](C2)N(CC2CC2)CC[C@]314 [NTI, reference compound]	-0.68
O=S(=O)(NCC1CC1)c1ccc2c3c([nH]c2c1)[C@@H]1Oc2c(O)ccc4c2[C@@]12CCN(CC1CC1)[C@H](C4)[C@]2(O)C3 [Compound 45]	1.19
O=[N+]([O-])c1cccc2[nH]c3c(c12)C[C@@]1(O)[C@H]2Cc4ccc(O)c5c4[C@@]1(CCN2CC1CC1)[C@H]3O5 [Compound 78]	0.86
COC(=O)c1cccc2[nH]c3c(c12)C[C@@]1(O)[C@H]2Cc4ccc(O)c5c4[C@@]1(CCN2CC1CC1)[C@H]3O5 [Compound 76]	1.24
CN(C)CCc1ccc2[nH]c3c(c2c1)C[C@@]1(O)[C@H]2Cc4ccc(O)c5c4[C@@]1(CCN2CC1CC1)[C@H]3O5 [Compound 9]	0.61
Oc1ccc2c3c1O[C@H]1c4[nH]c5ccc(I)cc5c4C[C@@]4(O)[C@@H](C2)N(CC2CC2)CC[C@]314 [Compound 1]	1.10
C=CCN1CC[C@]23c4c5ccc(O)c4O[C@H]2c2[nH]c4cccc(C(=O)OC)c4c2C[C@@]3(O)[C@H]1C5 [Compound 114]	0.71
CCOC(=O)c1cccc2c3c([nH]c12)[C@@H]1Oc2c(O)ccc4c2[C@@]12CCN(CC1CC1)[C@H](C4)[C@]2(O)C3 [Compound 119]	-0.80
CS(=O)(=O)c1ccc2[nH]c3c(c2c1)C[C@@]1(O)[C@H]2Cc4ccc(O)c5c4[C@@]1(CCN2CC1CC1)[C@H]3O5 [Compound 6]	0.94
O=C(NCC1CC1)c1ccc2c3c([nH]c2c1)[C@@H]1Oc2c(O)ccc4c2[C@@]12CCN(CC1CC1)[C@H](C4)[C@]2(O)C3 [Compound 47]	0.92
Oc1ccc2c3c1O[C@H]1c4[nH]c5c(-c6ccccc6)cccc5c4C[C@@]4(O)[C@@H](C2)N(CC2CC2)CC[C@]314 [Compound 120]	0.80
CN(C)S(=O)(=O)c1ccc2c3c([nH]c2c1)[C@@H]1Oc2c(O)ccc4c2[C@@]12CCN(CC1CC1)[C@H](C4)[C@]2(O)C3 [Compound 51]	0.49
CS(=O)(=O)c1ccc2c3c([nH]c2c1)[C@@H]1Oc2c(O)ccc4c2[C@@]12CCN(CC1CC1)[C@H](C4)[C@]2(O)C3 [Compound 188]	0.26
Oc1ccc2c3c1O[C@H]1c4[nH]c5ccc(CNCC6CC6)cc5c4C[C@@]4(O)[C@@H](C2)N(CC2CC2)CC[C@]314 [Compound 180]	0.85
NS(=O)(=O)c1ccc2[nH]c3c(c2c1)C[C@@]1(O)[C@H]2Cc4ccc(O)c5c4[C@@]1(CCN2CC1CC1)[C@H]3O5 [Compound 5]	1.47
N#Cc1ccc2[nH]c3c(c2c1)C[C@@]1(O)[C@H]2Cc4ccc(O)c5c4[C@@]1(CCN2CC1CC1)[C@H]3O5 [Compound 8]	1.59
CSc1ccc2c3c([nH]c2c1)[C@@H]1Oc2c(O)ccc4c2[C@@]12CCN(CC1CC1)[C@H](C4)[C@]2(O)C3 [Compound 43]	-0.22
Oc1ccc2c3c1O[C@H]1c4[nH]c5ccc(OC(F)(F)F)cc5c4C[C@@]4(O)[C@@H](C2)N(CC2CC2)CC[C@]314 [Compound 4]	1.16
CN(C)Cc1ccc2[nH]c3c(c2c1)C[C@@]1(O)[C@H]2Cc4ccc(O)c5c4[C@@]1(CCN2CC1CC1)[C@H]3O5 [Compound 10]	0.98
CCOC(=O)c1ccc2[nH]c3c(c2c1)C[C@@]1(O)[C@H]2Cc4ccc(O)c5c4[C@@]1(CCN2CC1CC1)[C@H]3O5 [Compound 3]	1.36
